Assay Target: KRas-mediated phosphorylation of ERK in A549 cells (Homo sapiens, UniProt P01116, G12S)
Construct: pERK HTRF read-out
Sequence (P01116 1-188 isoform P01116-2 G12S): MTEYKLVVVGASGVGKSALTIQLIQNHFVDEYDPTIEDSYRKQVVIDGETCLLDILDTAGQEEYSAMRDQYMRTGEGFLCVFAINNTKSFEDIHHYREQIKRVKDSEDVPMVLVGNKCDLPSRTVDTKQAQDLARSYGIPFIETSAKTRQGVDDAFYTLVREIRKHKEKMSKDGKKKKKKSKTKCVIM
Experimental Protocol: Inhibition of KRas-mediated phosphorylation of ERK (HTRF), A549 cells
Format: cell-based
Experimental Context: HTRF pERK, 3 h incubation
Please use TRUE for IC50 under 200 nM and FALSE for everything else, ties included.

Examples from the recorded data:
compound=CN(C(=O)C1CCN(c2nc(OC[C@@]34CCCN3C[C@H](F)C4)nc3c(F)c(-c4ccc(F)c5sc(N)c(C#N)c45)c(Cl)cc23)CC1)c1ccncn1 assay_target="KRas-mediated phosphorylation of ERK in A549 cells (Homo sapiens, UniProt P01116, G12S)" category=TRUE
compound=COc1ccccc1OC(=O)C1CCN(c2nc(OC[C@@]34CCCN3C[C@H](F)C4)nc3c(F)c(-c4ccc(F)c5sc(N)c(C#N)c45)c(Cl)cc23)CC1 assay_target="KRas-mediated phosphorylation of ERK in A549 cells (Homo sapiens, UniProt P01116, G12S)" category=TRUE
compound=COC(=O)C1CCN(c2nc(OC[C@@]34CCCN3C[C@H](F)C4)nc3c(F)c(-c4ccc(F)c5sc(N)c(C#N)c45)c(Cl)cc23)CC1 assay_target="KRas-mediated phosphorylation of ERK in A549 cells (Homo sapiens, UniProt P01116, G12S)" category=FALSE
compound="CCc1c(F)ccc2cc(O)cc(-c3ncc4c(NCC5CC(C(=O)N(C)C(C)=O)C5)nc(OC[C@@]56CCCN5C[C@H](F)C6)nc4c3F)c12 (stereo partly drawn)" assay_target="KRas-mediated phosphorylation of ERK in A549 cells (Homo sapiens, UniProt P01116, G12S)" category=TRUE
compound=CN(C)C(=O)N(C)C(=O)CCCN(C)c1nc(OC[C@@]23CCCN2C[C@H](F)C3)nc2c(F)c(-c3ccc(F)c4sc(N)c(C#N)c34)c(Cl)cc12 assay_target="KRas-mediated phosphorylation of ERK in A549 cells (Homo sapiens, UniProt P01116, G12S)" category=FALSE

Query block: Confirm or reject: IC50 of CCc1c(F)ccc2cc(O)cc(N3CCc4c(nc(OC[C@@]56CCCN5C[C@H](F)C6)nc4N4CCC(C(=O)n5ccc(C)n5)C4)C3)c12 (stereo partly drawn) lies strictly below 200 nM
Result block: TRUE
